Test system: Staphylococcus aureus
Assay: Antibacterial activity against erythromycin-susceptible Staphylococcus aureus ATCC 25923 by standard broth microdilution method
Format: functional
QUANTITY_NAME: MIC (µg/mL)

- SMILES_RECORD: "CC[C@H]1OC(=O)[C@H](C)C(=O)[C@H](C)[C@@H](O[C@H]2O[C@@H](C)C[C@@H](N(C)C)[C@@H]2O)[C@](C)(OC)C[C@@H](C)C(=O)[C@H](C)[C@@H](OC(=O)NCCn2cc(-c3ccc(F)cc3)nn2)[C@]1(C)O"
  DATA_VALUE: 16
- SMILES_RECORD: "CC[C@H]1OC(=O)[C@H](C)C(=O)[C@H](C)[C@@H](O[C@H]2O[C@@H](C)C[C@@H](N(C)C)[C@@H]2O)[C@](C)(OC)C[C@@H](C)C(=O)[C@H](C)[C@@H](OC(=O)NCCn2cc(-c3ccc(OC)cc3)nn2)[C@]1(C)O"
  DATA_VALUE: 16
- SMILES_RECORD: "CCCc1ccc(-c2cn(CCNC(=O)O[C@@H]3[C@@H](C)C(=O)[C@H](C)C[C@@](C)(OC)[C@H](O[C@H]4O[C@@H](C)C[C@@H](N(C)C)[C@@H]4O)[C@@H](C)C(=O)[C@@H](C)C(=O)O[C@H](CC)[C@@]3(C)O)nn2)cc1"
  DATA_VALUE: 32
- SMILES_RECORD: "CC[C@H]1OC(=O)[C@H](C)C(=O)[C@H](C)[C@@H](O[C@H]2O[C@@H](C)C[C@@H](N(C)C)[C@@H]2O)[C@](C)(OC)C[C@@H](C)C(=O)[C@H](C)[C@@H](OC(=O)NCCCn2cc(-c3cccc(Br)c3)nn2)[C@]1(C)O"
  DATA_VALUE: 8

====

We begin with a simple list: items and their reported MIC.
Test system: Bacillus subtilis
Test: Antibacterial activity against penicillin-susceptible Bacillus subtilis ATCC 9372 by standard broth microdilution method
Assay type: functional
QUANTITY_NAME: MIC

- SMILES_RECORD: "CC[C@H]1OC(=O)[C@H](C)C(=O)[C@H](C)[C@@H](O[C@H]2O[C@@H](C)C[C@@H](N(C)C)[C@@H]2O)[C@](C)(OC)C[C@@H](C)C(=O)[C@H](C)[C@@H](OC(=O)NCCn2cc(-c3cccc([N+](=O)[O-])c3)nn2)[C@]1(C)O"
  DATA_VALUE: "4 µg/mL"
- SMILES_RECORD: "CCCCc1ccc(-c2cn(CCNC(=O)O[C@@H]3[C@@H](C)C(=O)[C@H](C)C[C@@](C)(OC)[C@H](O[C@H]4O[C@@H](C)C[C@@H](N(C)C)[C@@H]4O)[C@@H](C)C(=O)[C@@H](C)C(=O)O[C@H](CC)[C@@]3(C)O)nn2)cc1"
  DATA_VALUE: "4 µg/mL"
- SMILES_RECORD: "CC[C@H]1OC(=O)[C@H](C)C(=O)[C@H](C)[C@@H](O[C@H]2O[C@@H](C)C[C@@H](N(C)C)[C@@H]2O)[C@](C)(OC)C[C@@H](C)C(=O)[C@H](C)[C@@H](OC(=O)NCCCn2cc(-c3ccc(Cl)cc3)nn2)[C@]1(C)O"
  DATA_VALUE: "1 µg/mL"
- SMILES_RECORD: "CC[C@H]1OC(=O)[C@H](C)C(=O)[C@H](C)[C@@H](O[C@H]2O[C@@H](C)C[C@@H](N(C)C)[C@@H]2O)[C@](C)(OC)C[C@@H](C)C(=O)[C@H](C)[C@@H](OC(=O)NCCCn2cc(-c3cccc(N)c3)nn2)[C@]1(C)O"
  DATA_VALUE: "4 µg/mL"
- SMILES_RECORD: "CC[C@H]1OC(=O)[C@H](C)C(=O)[C@H](C)[C@@H](O[C@H]2O[C@@H](C)C[C@@H](N(C)C)[C@@H]2O)[C@](C)(OC)C[C@@H](C)C(=O)[C@H](C)[C@@H](OC(=O)NCCn2cc(-c3cccc(N)c3)nn2)[C@]1(C)O"
  DATA_VALUE: "32 µg/mL"
- SMILES_RECORD: "CC[C@H]1OC(=O)[C@H](C)C(=O)[C@H](C)[C@@H](O[C@H]2O[C@@H](C)C[C@@H](N(C)C)[C@@H]2O)[C@](C)(OC)C[C@@H](C)C(=O)[C@H](C)[C@@H](OC(=O)NCCn2cc(-c3cccc(C)c3)nn2)[C@]1(C)O"
  DATA_VALUE: "8 µg/mL"
- SMILES_RECORD: "CC[C@H]1OC(=O)[C@H](C)C(=O)[C@H](C)[C@@H](O[C@H]2O[C@@H](C)C[C@@H](N(C)C)[C@@H]2O)[C@](C)(OC)C[C@@H](C)C(=O)[C@H](C)[C@@H](OC(=O)NCCn2cc(-c3ccccc3)nn2)[C@]1(C)O"
  DATA_VALUE: "8 µg/mL"
- SMILES_RECORD: "CC[C@H]1OC(=O)[C@H](C)C(=O)[C@H](C)[C@@H](O[C@H]2O[C@@H](C)C[C@@H](N(C)C)[C@@H]2O)[C@](C)(OC)C[C@@H](C)C(=O)[C@H](C)[C@@H](OC(=O)NCCn2cc(-c3ccc(C(C)(C)C)cc3)nn2)[C@]1(C)O"
  DATA_VALUE: "8 µg/mL"
- SMILES_RECORD: "CC[C@H]1OC(=O)[C@H](C)C(=O)[C@H](C)[C@@H](O[C@H]2O[C@@H](C)C[C@@H](N(C)C)[C@@H]2O)[C@](C)(OC)C[C@@H](C)C(=O)[C@H](C)[C@@H](OC(=O)NCCCn2cc(-c3ccc(-c4ccccc4)cc3)nn2)[C@]1(C)O"
  DATA_VALUE: "1 µg/mL"
- SMILES_RECORD: "CC[C@H]1OC(=O)[C@H](C)C(=O)[C@H](C)[C@@H](O[C@H]2O[C@@H](C)C[C@@H](N(C)C)[C@@H]2O)[C@](C)(OC)C[C@@H](C)C(=O)[C@H](C)[C@@H](OC(=O)NCCCn2cc(-c3ccccc3)nn2)[C@]1(C)O"
  DATA_VALUE: "8 µg/mL"
- SMILES_RECORD: "CCCc1ccc(-c2cn(CCNC(=O)O[C@@H]3[C@@H](C)C(=O)[C@H](C)C[C@@](C)(OC)[C@H](O[C@H]4O[C@@H](C)C[C@@H](N(C)C)[C@@H]4O)[C@@H](C)C(=O)[C@@H](C)C(=O)O[C@H](CC)[C@@]3(C)O)nn2)cc1"
  DATA_VALUE: "8 µg/mL"
- SMILES_RECORD: "CC[C@H]1OC(=O)[C@H](C)[C@@H](O[C@H]2C[C@@](C)(OC)[C@@H](O)[C@H](C)O2)[C@H](C)[C@@H](O[C@@H]2O[C@H](C)C[C@H](N(C)C)[C@H]2O)[C@](C)(OC)C[C@@H](C)C(=O)[C@H](C)[C@@H](O)[C@]1(C)O"
  DATA_VALUE: "0.25 µg/mL"
- SMILES_RECORD: "CC[C@H]1OC(=O)[C@H](C)C(=O)[C@H](C)[C@@H](O[C@H]2O[C@@H](C)C[C@@H](N(C)C)[C@@H]2O)[C@](C)(OC)C[C@@H](C)C(=O)[C@H](C)[C@@H](OC(=O)NCCn2cc(-c3ccc([N+](=O)[O-])cc3)nn2)[C@]1(C)O"
  DATA_VALUE: "4 µg/mL"
- SMILES_RECORD: "CCCCc1ccc(-c2cn(CCCNC(=O)O[C@@H]3[C@@H](C)C(=O)[C@H](C)C[C@@](C)(OC)[C@H](O[C@H]4O[C@@H](C)C[C@@H](N(C)C)[C@@H]4O)[C@@H](C)C(=O)[C@@H](C)C(=O)O[C@H](CC)[C@@]3(C)O)nn2)cc1"
  DATA_VALUE: "2 µg/mL"
- SMILES_RECORD: "CC[C@H]1OC(=O)[C@H](C)C(=O)[C@H](C)[C@@H](O[C@H]2O[C@@H](C)C[C@@H](N(C)C)[C@@H]2O)[C@](C)(OC)C[C@@H](C)C(=O)[C@H](C)[C@@H](OC(=O)NCCn2cc(-c3cccc(Cl)c3)nn2)[C@]1(C)O"
  DATA_VALUE: "4 µg/mL"
- SMILES_RECORD: "CCOc1ccc(-c2cn(CCNC(=O)O[C@@H]3[C@@H](C)C(=O)[C@H](C)C[C@@](C)(OC)[C@H](O[C@H]4O[C@@H](C)C[C@@H](N(C)C)[C@@H]4O)[C@@H](C)C(=O)[C@@H](C)C(=O)O[C@H](CC)[C@@]3(C)O)nn2)cc1"
  DATA_VALUE: "16 µg/mL"

====

System: Bacillus subtilis
Experiment: Antibacterial activity against penicillin-susceptible Bacillus subtilis ATCC 9372 by standard broth microdilution method
Assay type: functional
We begin with a simple list: items and their reported MIC.

- SMILES_RECORD: "CCc1ccc(-c2cn(CCNC(=O)O[C@@H]3[C@@H](C)C(=O)[C@H](C)C[C@@](C)(OC)[C@H](O[C@H]4O[C@@H](C)C[C@@H](N(C)C)[C@@H]4O)[C@@H](C)C(=O)[C@@H](C)C(=O)O[C@H](CC)[C@@]3(C)O)nn2)cc1"
  MIC (µg/mL): 4
- SMILES_RECORD: "CC[C@H]1OC(=O)[C@H](C)C(=O)[C@H](C)[C@@H](O[C@H]2O[C@@H](C)C[C@@H](N(C)C)[C@@H]2O)[C@](C)(OC)C[C@@H](C)C(=O)[C@H](C)[C@@H](OC(=O)NCCn2cc(-c3cccc(F)c3)nn2)[C@]1(C)O"
  MIC (µg/mL): 4
- SMILES_RECORD: "CC[C@H]1OC(=O)[C@H](C)C(=O)[C@H](C)[C@@H](O[C@H]2O[C@@H](C)C[C@@H](N(C)C)[C@@H]2O)[C@](C)(OC)C[C@@H](C)C(=O)[C@H](C)[C@@H](OC(=O)NCCn2cc(-c3ccc(OC)cc3)nn2)[C@]1(C)O"
  MIC (µg/mL): 4
- SMILES_RECORD: "CC[C@H]1OC(=O)[C@H](C)C(=O)[C@H](C)[C@@H](O[C@H]2O[C@@H](C)C[C@@H](N(C)C)[C@@H]2O)[C@](C)(OC)C[C@@H](C)C(=O)[C@H](C)[C@@H](OC(=O)NCCCn2cc(-c3ccc(C(C)(C)C)cc3)nn2)[C@]1(C)O"
  MIC (µg/mL): 16

The measurements presented in this section are drawn from ChEMBL document CHEMBL4602639.
